Numbers sourced from ChEMBL document CHEMBL5058641.

# test-target: Vasopressin V1a receptor (Homo sapiens)
# Sequence (P37288 whole entry): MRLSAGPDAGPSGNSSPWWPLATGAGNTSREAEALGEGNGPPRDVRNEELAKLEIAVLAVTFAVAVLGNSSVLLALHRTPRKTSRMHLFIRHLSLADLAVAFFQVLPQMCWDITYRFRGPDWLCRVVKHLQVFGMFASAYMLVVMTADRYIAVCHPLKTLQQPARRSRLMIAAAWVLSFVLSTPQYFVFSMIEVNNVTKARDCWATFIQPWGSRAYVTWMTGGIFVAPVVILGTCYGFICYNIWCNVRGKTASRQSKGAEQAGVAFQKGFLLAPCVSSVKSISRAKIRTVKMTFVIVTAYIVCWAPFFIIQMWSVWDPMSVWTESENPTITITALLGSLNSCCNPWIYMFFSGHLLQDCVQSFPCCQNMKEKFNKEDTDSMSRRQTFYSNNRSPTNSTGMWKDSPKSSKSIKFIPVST

smiles-entry: Cc1cn([C@H](C)CC#N)c(=O)c2cc(Cn3nc(C(F)F)cc3Cl)nn12
IC50: > 10 µM

###

# test-target: Glucocorticoid receptor (Homo sapiens, UniProt P04150)
# Sequence (P04150 whole entry): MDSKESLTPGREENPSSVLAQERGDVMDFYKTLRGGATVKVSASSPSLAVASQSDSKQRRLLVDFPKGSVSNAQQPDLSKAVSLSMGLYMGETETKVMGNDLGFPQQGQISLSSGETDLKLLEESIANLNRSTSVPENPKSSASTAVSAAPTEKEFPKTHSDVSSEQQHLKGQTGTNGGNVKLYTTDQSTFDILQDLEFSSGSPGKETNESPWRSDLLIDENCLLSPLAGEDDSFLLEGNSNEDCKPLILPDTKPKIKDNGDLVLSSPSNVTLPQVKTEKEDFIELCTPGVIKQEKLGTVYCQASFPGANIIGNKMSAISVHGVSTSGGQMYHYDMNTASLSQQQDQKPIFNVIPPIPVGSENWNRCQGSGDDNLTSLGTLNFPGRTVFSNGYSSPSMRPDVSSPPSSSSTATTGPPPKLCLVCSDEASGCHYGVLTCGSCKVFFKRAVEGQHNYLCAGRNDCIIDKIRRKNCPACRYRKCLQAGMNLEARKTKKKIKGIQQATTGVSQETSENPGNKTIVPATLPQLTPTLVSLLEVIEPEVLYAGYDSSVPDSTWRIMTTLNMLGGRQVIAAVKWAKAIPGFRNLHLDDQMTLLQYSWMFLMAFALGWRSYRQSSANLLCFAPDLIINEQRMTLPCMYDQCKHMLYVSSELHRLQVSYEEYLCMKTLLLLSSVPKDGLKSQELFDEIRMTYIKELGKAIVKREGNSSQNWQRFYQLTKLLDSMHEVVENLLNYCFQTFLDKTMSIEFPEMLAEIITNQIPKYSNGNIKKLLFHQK
assay-readout: IC50

smiles-entry: Cc1cn([C@H](C)CC#N)c(=O)c2cc(Cn3nc(C(F)F)cc3Cl)nn12
measured-value: > 10 µM

###

# test-target: cGMP-inhibited 3',5'-cyclic phosphodiesterase 3A (Homo sapiens)
# Sequence (Q14432 whole entry): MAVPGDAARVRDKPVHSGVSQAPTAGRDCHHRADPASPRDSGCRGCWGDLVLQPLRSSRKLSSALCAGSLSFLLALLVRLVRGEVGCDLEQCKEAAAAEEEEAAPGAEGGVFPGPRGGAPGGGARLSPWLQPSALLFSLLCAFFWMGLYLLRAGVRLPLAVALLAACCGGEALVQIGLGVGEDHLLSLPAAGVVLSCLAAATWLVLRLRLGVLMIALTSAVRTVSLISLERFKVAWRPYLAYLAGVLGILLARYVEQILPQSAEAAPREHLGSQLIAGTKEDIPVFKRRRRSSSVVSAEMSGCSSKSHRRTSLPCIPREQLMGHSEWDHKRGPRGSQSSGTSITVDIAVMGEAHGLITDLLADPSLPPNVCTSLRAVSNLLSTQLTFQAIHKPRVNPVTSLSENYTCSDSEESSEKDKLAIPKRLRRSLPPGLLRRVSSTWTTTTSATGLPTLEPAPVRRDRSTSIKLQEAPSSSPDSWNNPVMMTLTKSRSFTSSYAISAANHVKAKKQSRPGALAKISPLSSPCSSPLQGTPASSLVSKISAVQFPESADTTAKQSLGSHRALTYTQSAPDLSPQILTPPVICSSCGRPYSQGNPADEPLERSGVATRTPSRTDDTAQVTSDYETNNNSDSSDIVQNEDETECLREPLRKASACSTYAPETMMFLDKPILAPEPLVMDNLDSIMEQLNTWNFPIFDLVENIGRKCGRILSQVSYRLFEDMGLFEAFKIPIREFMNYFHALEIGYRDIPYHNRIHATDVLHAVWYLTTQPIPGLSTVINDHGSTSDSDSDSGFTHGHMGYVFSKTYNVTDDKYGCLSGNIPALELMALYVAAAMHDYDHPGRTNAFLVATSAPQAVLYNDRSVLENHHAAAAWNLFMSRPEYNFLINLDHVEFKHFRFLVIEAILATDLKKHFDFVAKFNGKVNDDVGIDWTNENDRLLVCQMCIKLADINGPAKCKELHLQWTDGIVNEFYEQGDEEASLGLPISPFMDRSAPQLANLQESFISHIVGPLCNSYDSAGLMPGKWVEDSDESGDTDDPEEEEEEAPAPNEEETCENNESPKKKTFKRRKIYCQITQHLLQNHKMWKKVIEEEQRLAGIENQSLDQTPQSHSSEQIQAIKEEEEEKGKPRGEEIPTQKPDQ
pIC50: −log10 of the molar value.

smiles-entry: Cc1cn([C@H](C)CC#N)c(=O)c2cc(Cn3nc(C(F)F)cc3Cl)nn12
test-target: cGMP-inhibited 3',5'-cyclic phosphodiesterase 3A (Homo sapiens)
pIC50: 5.10

###

# test-target: UniProt:P34972
# Sequence (P34972 whole entry): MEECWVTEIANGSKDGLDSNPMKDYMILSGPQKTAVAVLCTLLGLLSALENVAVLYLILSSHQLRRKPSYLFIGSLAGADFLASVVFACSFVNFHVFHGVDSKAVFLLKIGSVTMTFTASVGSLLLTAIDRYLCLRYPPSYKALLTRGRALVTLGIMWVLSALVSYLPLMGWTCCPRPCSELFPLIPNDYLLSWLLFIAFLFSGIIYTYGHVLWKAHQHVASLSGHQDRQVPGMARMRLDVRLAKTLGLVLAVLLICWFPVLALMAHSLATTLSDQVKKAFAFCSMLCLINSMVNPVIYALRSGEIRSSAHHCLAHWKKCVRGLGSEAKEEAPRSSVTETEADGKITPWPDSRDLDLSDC

smiles-entry: Cc1cn([C@H](C)CC#N)c(=O)c2cc(Cn3nc(C(F)F)cc3Cl)nn12
IC50: > 10 µM

###

# test-target: Sodium-dependent dopamine transporter (Homo sapiens)
# Sequence (Q01959 whole entry): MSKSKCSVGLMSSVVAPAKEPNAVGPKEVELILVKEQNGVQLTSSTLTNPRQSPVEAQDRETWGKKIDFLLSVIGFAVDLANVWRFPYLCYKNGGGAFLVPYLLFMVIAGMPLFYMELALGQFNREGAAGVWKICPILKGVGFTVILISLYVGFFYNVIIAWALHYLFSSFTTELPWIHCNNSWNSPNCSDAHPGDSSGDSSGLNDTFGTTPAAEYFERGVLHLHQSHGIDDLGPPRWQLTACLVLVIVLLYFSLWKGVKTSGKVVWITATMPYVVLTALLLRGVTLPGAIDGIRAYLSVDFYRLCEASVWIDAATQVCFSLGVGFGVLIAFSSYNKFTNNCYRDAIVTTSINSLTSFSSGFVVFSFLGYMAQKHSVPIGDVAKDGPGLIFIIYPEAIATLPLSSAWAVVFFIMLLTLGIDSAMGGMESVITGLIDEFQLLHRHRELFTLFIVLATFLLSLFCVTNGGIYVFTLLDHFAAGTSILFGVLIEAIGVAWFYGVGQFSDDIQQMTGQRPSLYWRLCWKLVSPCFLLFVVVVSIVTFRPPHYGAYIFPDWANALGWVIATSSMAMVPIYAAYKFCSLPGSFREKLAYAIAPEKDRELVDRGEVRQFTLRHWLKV
assay-readout: IC50

smiles-entry: Cc1cn([C@H](C)CC#N)c(=O)c2cc(Cn3nc(C(F)F)cc3Cl)nn12
test-target: Sodium-dependent dopamine transporter (Homo sapiens)
measured-value: > 10 µM

###

# test-target: UniProt P14416
# Sequence (P14416 whole entry): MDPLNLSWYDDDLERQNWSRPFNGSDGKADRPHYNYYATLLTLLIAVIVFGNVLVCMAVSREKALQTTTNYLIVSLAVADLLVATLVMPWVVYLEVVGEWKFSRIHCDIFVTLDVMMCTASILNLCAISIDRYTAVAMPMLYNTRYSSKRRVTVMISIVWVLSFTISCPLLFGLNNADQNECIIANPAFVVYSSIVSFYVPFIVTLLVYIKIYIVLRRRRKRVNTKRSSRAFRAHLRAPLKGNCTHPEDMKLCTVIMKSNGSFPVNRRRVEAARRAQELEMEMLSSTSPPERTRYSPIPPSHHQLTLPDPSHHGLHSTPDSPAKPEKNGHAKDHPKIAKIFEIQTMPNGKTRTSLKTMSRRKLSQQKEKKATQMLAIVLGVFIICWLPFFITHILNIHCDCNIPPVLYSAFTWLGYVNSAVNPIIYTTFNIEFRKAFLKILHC
# protocol-notes: DRD2S Eurofins SafetyScan (Receptor)
pEC50: −log10 of the molar value.
assay-readout: pEC50

smiles-entry: Cc1cn([C@H](C)CC#N)c(=O)c2cc(Cn3nc(C(F)F)cc3Cl)nn12
measured-value: < 5.00

###

# test-target: D(1A) dopamine receptor (Homo sapiens)
# Sequence (P21728 whole entry): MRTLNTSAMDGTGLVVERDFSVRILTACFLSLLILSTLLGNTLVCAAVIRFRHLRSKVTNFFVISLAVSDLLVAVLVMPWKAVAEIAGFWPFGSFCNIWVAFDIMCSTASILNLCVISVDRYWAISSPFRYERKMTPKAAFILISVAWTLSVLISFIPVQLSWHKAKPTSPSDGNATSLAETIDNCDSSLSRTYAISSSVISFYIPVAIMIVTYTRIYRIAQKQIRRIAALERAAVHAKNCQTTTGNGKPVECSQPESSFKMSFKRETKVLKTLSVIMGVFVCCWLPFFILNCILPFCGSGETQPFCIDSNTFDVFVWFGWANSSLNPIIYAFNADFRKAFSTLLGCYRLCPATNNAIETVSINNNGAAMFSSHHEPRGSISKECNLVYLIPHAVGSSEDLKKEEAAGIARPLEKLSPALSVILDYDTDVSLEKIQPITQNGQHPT
# protocol-notes: DRD1 Eurofins SafetyScan (Receptor)
pEC50: −log10 of the molar value.
assay-readout: pEC50

smiles-entry: Cc1cn([C@H](C)CC#N)c(=O)c2cc(Cn3nc(C(F)F)cc3Cl)nn12
test-target: D(1A) dopamine receptor (Homo sapiens)
measured-value: < 5.00
